Recorded values, source paper PMC4336329.

Target: human ether-à-go-go-related gene (hERG) potassium channel (human);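 note: peak tail current of the secondary pulse compared with the same well before compound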
Assay: primary screen, population patch clamp on CHO cells stably expressing hERG; higher = less effect of the substance
Description: Briefly, Chinese hamster ovary (CHO) cells stably expressing the hERG channel were dislodged from tissue culture flasks and dispensed into PPC plates. […] During the recording, background leak currents were estimated by a 100 ms step to -80 mV from an initial holding potential of -70 mV and subtracted from the subsequent current measurement. The campaign was conducted in two phases using slight differences in recording protocol. […]
About 14,000 (4.5%) of roughly 310,000 compounds showed an effect of 50% or more. Effects have a minus sign here. Shown is part of a subset that was picked to be rich in strong results.
true (1) means recorded hERG current change (%, negative = inhibition) at 10uM is -20% or above; false (0) means it is below -20%.

hey, is hERG current change (%, negative = inhibition) at 10uM for this one >= -20%? O=C(CSc1nc2ccccc2c(=O)n1CCCN1CCOCC1)NC12CC3CC(CC(C3)C1)C2
false (0)

hey, is hERG current change (%, negative = inhibition) at 10uM for this one >= -20%? Nc1nc(CN2CCC(Cc3ccccc3)CC2)nc(Nc2ccccc2)n1
false (0)

hey, is hERG current change (%, negative = inhibition) at 10uM for this one >= -20%? CSCCC(=O)N(C)CC1CCCN(CCc2cccc(C(F)(F)F)c2)C1 (centres unmarked)
false (0)

hey, is hERG current change (%, negative = inhibition) at 10uM for this one >= -20%? CC(=O)Nc1ccc(NC(=O)C(C)Sc2nc3ccccc3c(=O)n2CC2CCCO2)cc1 (centres unmarked)
true (1)

* * *

molecular target: human ether-à-go-go-related gene (hERG) potassium channel (human, UniProt Q12809); assay: primary screen, population patch clamp on CHO cells stably expressing hERG; higher = less effect of the substance;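 note: peak tail current of the secondary pulse compared with the same well before compound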
Sequence (Q12809 whole entry, looked up): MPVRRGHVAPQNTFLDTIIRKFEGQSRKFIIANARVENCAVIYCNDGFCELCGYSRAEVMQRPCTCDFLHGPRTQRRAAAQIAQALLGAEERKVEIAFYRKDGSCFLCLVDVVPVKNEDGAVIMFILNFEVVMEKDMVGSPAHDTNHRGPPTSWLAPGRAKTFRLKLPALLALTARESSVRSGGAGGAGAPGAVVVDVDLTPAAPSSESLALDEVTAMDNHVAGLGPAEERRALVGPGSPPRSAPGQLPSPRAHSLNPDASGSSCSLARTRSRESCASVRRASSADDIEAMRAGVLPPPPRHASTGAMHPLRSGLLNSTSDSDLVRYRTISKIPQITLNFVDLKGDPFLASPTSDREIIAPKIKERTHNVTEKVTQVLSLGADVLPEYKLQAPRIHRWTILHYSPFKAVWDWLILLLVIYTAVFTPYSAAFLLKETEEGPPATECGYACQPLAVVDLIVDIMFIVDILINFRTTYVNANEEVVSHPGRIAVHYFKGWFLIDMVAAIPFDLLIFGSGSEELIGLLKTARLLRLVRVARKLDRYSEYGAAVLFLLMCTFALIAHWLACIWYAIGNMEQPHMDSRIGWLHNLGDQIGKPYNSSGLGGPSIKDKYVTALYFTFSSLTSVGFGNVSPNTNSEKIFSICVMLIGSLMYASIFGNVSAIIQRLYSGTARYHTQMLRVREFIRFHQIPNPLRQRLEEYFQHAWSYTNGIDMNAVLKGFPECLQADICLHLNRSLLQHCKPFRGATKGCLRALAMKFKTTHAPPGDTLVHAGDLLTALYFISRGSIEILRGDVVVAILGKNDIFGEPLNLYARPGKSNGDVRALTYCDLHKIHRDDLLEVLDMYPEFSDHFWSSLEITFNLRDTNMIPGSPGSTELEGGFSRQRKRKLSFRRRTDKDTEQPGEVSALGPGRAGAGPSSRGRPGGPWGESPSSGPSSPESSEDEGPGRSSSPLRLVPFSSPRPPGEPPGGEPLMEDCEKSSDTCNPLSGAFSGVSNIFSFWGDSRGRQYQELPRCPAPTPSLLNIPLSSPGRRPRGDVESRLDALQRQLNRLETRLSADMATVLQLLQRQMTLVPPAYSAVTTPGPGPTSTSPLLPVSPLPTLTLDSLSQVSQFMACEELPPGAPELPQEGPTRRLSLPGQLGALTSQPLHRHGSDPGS
The campaign covered roughly 310,000 compounds. About 14,000 (4.5%) showed an effect of 50% or more. Effects have a minus sign here. Shown is part of a subset that was picked to be rich in strong results.
EXPERIMENTAL ENDPOINT: hERG current change (%, negative = inhibition) at 10uM
Write the quantity with the unit trailing the number.

Examples with their reported hERG current change (%, negative = inhibition) at 10uM follow.
COc1cc(CNc2ccc3[nH]c(=O)[nH]c3c2)cc(Cl)c1OCC(=O)NC(C)(C)C ... 4.56%
Cc1cccc(Nc2nc(N)nc(CN3CCN(C)CC3)n2)c1 ... -39.2%
COc1ccc(C2/C(=C(\O)c3ccc4c(c3)OCCO4)C(=O)C(=O)N2Cc2ccco2)c(OC)c1 (stereo not drawn) ... -9.64%
O=C(NC1CCCCC1)c1ccc(S(=O)(=O)N2CCCCC2)cc1 ... -6.43%
N#CC1=C(N)N(c2ccccc2)C(c2cccc([N+](=O)[O-])c2)C1(C#N)C#N (stereo not drawn) ... -29.6%
O=C(O)C1CC1(c1ccccc1)c1ccccc1 (stereo not drawn) ... 17.7%

For each of the items listed, what is its hERG current change (%, negative = inhibition) at 10uM?
1. CC(C)C(=O)NC(=S)/C=C1/N(C)c2ccccc2C1(C)C
2. Cc1ccccc1NC(=O)C1CCCN(S(=O)(=O)c2ccc3c(c2)C(C)(C)C(=O)N3C)C1 (stereo not drawn)
3. O=C(NCCC1=CCCCC1)c1cc(COc2ccc(F)cc2Cl)on1
4. Cc1ccc(NS(=O)(=O)c2ccc(C(=O)N3CCCCCC3)cc2)cc1

["-1.42%", "6.82%", "10.4%", "-8.38%"]

For each of the items listed, what is its hERG current change (%, negative = inhibition) at 10uM?
1. Cc1ccc(NS(=O)(=O)c2ccc(C(=O)N3CC(C)CC(C)C3)cc2)cc1 (stereo not drawn)
2. Cc1cccc(Nc2nc(N)nc(CN3CCN(c4ccc(F)cc4)CC3)n2)c1
3. COc1ccc(Nc2nc(N)nc(CSC(=S)N3CCN(c4ccccc4)CC3)n2)cc1
4. O=C(c1cc2ncccn2n1)N1CCc2c([nH]c3ccccc23)C1c1ccccc1F (stereo not drawn)
5. CCOC(=O)c1ccc(NC(=O)c2cccc(C)c2[N+](=O)[O-])cc1
6. COc1ccc(N2C(=O)c3ccccc3NC2c2ccc(OC)c(CSc3ccccn3)c2)cc1 (stereo not drawn)

-58.7%
-73.3%
14.1%
-5.11%
4.73%
2.62%

For each of the items listed, what is its hERG current change (%, negative = inhibition) at 10uM?
1. Cl.OC(c1ccccc1)(c1ccc(F)cc1)C(c1ccccc1)N1CCOCC1 (stereo not drawn)
2. CC(C)CC(=O)N1CCN(C(=O)c2cccc(F)c2)CC1
3. Cc1cccc(Nc2nc(N)nc(CN3CCN(c4ccccc4)CC3)n2)c1
4. O=C(CC(Nc1ccccc1)C(=O)O)c1ccccc1 (stereo not drawn)
5. Fc1ccccc1C1c2[nH]c3ccccc3c2CCN1Cc1ccoc1 (stereo not drawn)
6. CC(=O)Nc1ccc(N(C(=O)CNC(=O)c2cccs2)C(C(=O)NCC2CCCO2)c2ccccc2)cc1 (stereo not drawn)
7. COc1ccc(OCC(=O)N2CCc3c([nH]c4ccccc34)C2c2ccccn2)cc1 (stereo not drawn)
8. Cc1ccc2nc(/C(C#N)=C/c3ccc(O)c(O)c3)[nH]c2c1

1: 16.8%; 2: 0.0457%; 3: -54.5%; 4: 11.2%; 5: -51.7%; 6: 13.2%; 7: 21.4%; 8: 7.82%

For each of the items listed, what is its hERG current change (%, negative = inhibition) at 10uM?
1. CCN1CCN(CCCNC(=O)c2ccc(CS(=O)c3ccc(Br)cc3)o2)CC1 (stereo not drawn)
2. COc1ccc(OCc2nn3c(-c4ccco4)nnc3s2)cc1
3. NC(=O)Nc1ccc(Oc2c(F)c(F)c(F)c(F)c2F)cc1
4. N=C1c2ccccc2CN1c1ncccn1
5. COc1ccc(CC(=O)NNC(=O)CCc2ccccc2)cc1OC
6. Cc1ccc(NS(=O)(=O)c2ccc(C(=O)N3CC(C)OC(C)C3)cc2)cc1 (stereo not drawn)
7. CCOc1ccc(C2c3[nH]c4ccccc4c3CCN2C(=O)Cn2cncn2)cc1 (stereo not drawn)
8. O=C(NCc1ccc2c(c1)OCO2)C1CC(=O)N(c2ccc(F)cc2)C1 (stereo not drawn)

24.5%
-36.6%
-11.5%
-10.6%
14.8%
14.2%
-15%
-29.9%
